assay: Solubility by the shake-flask method; format: physicochemical; details: universal buffer, pH 7.5, calculated from shake-flask solubility and Equation (7), pKa' at I = 0.1 M; corresponds to tetrahydrate form; read-out: intrinsic solubility of the zwitterionic form (S0)
readout label: solubility at 24 h (µg/mL)
Kindly provide the numeric value in µg/mL only, without the unit symbol.

Incoming: So what's the measured solubility at 24 h for this one? CCn1cc(C(=O)O)c(=O)c2cc(F)c(N3CCNCC3)cc21
Outgoing: 320

###

experiment: Solubility by the shake-flask method; assay type: physicochemical; conditions: universal buffer, pH 7.25, shake-flask, universal buffer, 25 °C, I = 0.1 M, final pH 7.25, n = 3; solid transformed to tetrahydrate; read-out: solubility
readout label: solubility at 24 h

Incoming: So what's the measured solubility at 24 h for this one? CCn1cc(C(=O)O)c(=O)c2cc(F)c(N3CCNCC3)cc21
Outgoing: 394 µg/mL

###

assay: pKa determination by potentiometric titration; assay type: physicochemical; settings: 0.15 M KCl aqueous solution, water, 25 °C and 0 ionic strength, potentiometry; given as ref 37 (authors' unpublished work); read-out: pKa (second)
readout label: pKa
Number only, please.

Incoming: So what's the measured pKa for this one? Oc1cccc(O)c1
Outgoing: 11.6

###

assay: pKa determination by potentiometric titration; type: physicochemical; details: 0.15 M KCl aqueous solution, water, 25 °C and 0 ionic strength, potentiometry; given as ref 37 (authors' unpublished work); read-out: pKa (first)
readout label: pKa

Incoming: So what's the measured pKa for this one? CCn1cc(C(=O)O)c(=O)c2cc(F)c(N3CCNCC3)cc21
Outgoing: 6.35

Incoming: So what's the measured pKa for this one? Oc1cccc(O)c1
Outgoing: 9.47
